Here the recorded pKi is given for each entry.
biological target: Sodium-dependent serotonin transporter (Homo sapiens)
On this scale, pKi is minus log10 of a concentration expressed in M (mol/L).

// sample Cc1ccc([C@H]2CC3CCC([C@H]2c2cc(Cc4ccc(Cl)cc4)no2)N3C)cc1 (some centres undefined) , its pKi was 7.07

For record Cc1ccc(-c2c(C)noc2[C@@H]2C3CCC(C[C@@H]2c2ccc(C)cc2)N3C)cc1 (some centres undefined) the listed pKi is 6.00

pKi measured on CN1C2CCC1[C@@H](c1cc(-c3ccc(F)cc3)no1)[C@@H](c1ccc(Cl)cc1)C2 (some centres undefined) = 6.18

More entries:
get_value(item= COc1ccc(Cc2cc([C@@H]3C4CCC(C[C@@H]3c3ccc(Cl)cc3)N4C)on2)cc1 (some centres undefined) , readout=pKi) returns 7.84

// field: pKi; key: COc1ccc(-c2cc([C@@H]3C4CCC(C[C@@H]3c3ccc(Cl)cc3)N4C)on2)cc1 (some centres undefined) ; value = 6.27

Noted for CN1C2CCC1[C@@H](c1cc(Cc3ccc(Cl)cc3)no1)[C@@H](c1ccc(Cl)cc1)C2 (some centres undefined) : its pKi reads 7.10

---

biological target: Sodium-dependent dopamine transporter (Homo sapiens)
REPORTED_ENDPOINT: pIC50
// scale note: pIC50 = -log10(conc_M); give the bare number

Below: 4 compounds and their reported pIC50.
Record Cc1ccc(-c2c(C)noc2[C@@H]2C3CCC(C[C@@H]2c2ccc(C)cc2)N3C)cc1 (some centres undefined) has Sodium-dependent dopamine transporter (Homo sapiens) pIC50 equal to 6.76

Entry Cc1ccc(Cc2cc([C@@H]3C4CCC(C[C@@H]3c3ccc(C)cc3)N4C)on2)cc1 (some centres undefined) : pIC50 on Sodium-dependent dopamine transporter (Homo sapiens) = 8.16

Value sought: pIC50, system Sodium-dependent dopamine transporter (Homo sapiens), item Cc1ccc([C@H]2CC3CCC([C@H]2c2cc(-c4ccc(F)cc4)no2)N3C)cc1 (some centres undefined) . Result: 8.19

Reported Sodium-dependent dopamine transporter (Homo sapiens) pIC50 for item Cc1ccc([C@H]2CC3CCC([C@H]2c2cc(Cc4ccc(Cl)cc4)no2)N3C)cc1 (some centres undefined) was 7.65

Next:
# pIC50 measured on Sodium-dependent dopamine transporter (Homo sapiens) for item COc1ccc(Cc2cc([C@@H]3C4CCC(C[C@@H]3c3ccc(Cl)cc3)N4C)on2)cc1 (some centres undefined) = 8.21

Record CN1C2CCC1[C@@H](c1cc(Cc3ccc(F)cc3)no1)[C@@H](c1ccc(Cl)cc1)C2 (some centres undefined) has Sodium-dependent dopamine transporter (Homo sapiens) pIC50 equal to 8.07

Observed pIC50 on Sodium-dependent dopamine transporter (Homo sapiens), entry Cc1ccc([C@H]2CC3CCC([C@H]2c2cc(Cc4ccc(F)cc4)no2)N3C)cc1 (some centres undefined) , equals 8.23

Cc1ccc(-c2c(C)noc2[C@@H]2C3CCC(C[C@@H]2c2ccc(Cl)cc2)N3C)cc1 (some centres undefined) on Sodium-dependent dopamine transporter (Homo sapiens) gives pIC50 = 6.87

Record Cc1ccc([C@H]2CC3CCC([C@H]2c2onc(C)c2-c2ccc(F)cc2)N3C)cc1 (some centres undefined) / Sodium-dependent dopamine transporter (Homo sapiens), pIC50 recorded as 7.12

---

Values of pKi reported for Sodium-dependent noradrenaline transporter (Homo sapiens) appear below.
Worth noting: pKi values are minus log10 of concentrations stated in mol/L.

Param item: Cc1ccc(-c2cc([C@@H]3C4CCC(C[C@@H]3c3ccc(Cl)cc3)N4C)on2)cc1 (stereo not given in full) ; param system: Sodium-dependent noradrenaline transporter (Homo sapiens); output pKi: 5.99

Note to self: pKi of COc1ccc(-c2c(C)noc2[C@@H]2C3CCC(C[C@@H]2c2ccc(C)cc2)N3C)cc1 (stereo not given in full) with Sodium-dependent noradrenaline transporter (Homo sapiens) was 5.89

Observed pKi on Sodium-dependent noradrenaline transporter (Homo sapiens), entry Cc1ccc([C@H]2CC3CCC([C@H]2c2cc(Cc4ccc(Cl)cc4)no2)N3C)cc1 (stereo not given in full) , equals 6.08

---

Read-out record for Sodium-dependent serotonin transporter (Homo sapiens): Ki
Field format: number, assumed nM, no unit text.

For orientation, consider the following solved cases.
Record COc1ccc(-c2cc([C@@H]3C4CCC(C[C@@H]3c3ccc(C)cc3)N4C)on2)cc1 (stereo not given in full) , field Ki: 366

Entry Cc1ccc([C@H]2CC3CCC([C@H]2c2cc(Cc4ccc(F)cc4)no2)N3C)cc1 (stereo not given in full) — recorded Ki = 113

According to the records, this molecule COc1ccc(-c2c(C)noc2[C@@H]2C3CCC(C[C@@H]2c2ccc(Cl)cc2)N3C)cc1 (stereo not given in full) displays Ki of 1800

More entries:
What the record says about COc1ccc(Cc2cc([C@@H]3C4CCC(C[C@@H]3c3ccc(C)cc3)N4C)on2)cc1 (stereo not given in full) : Ki is 41.1

---

biological target: Sodium-dependent dopamine transporter (Homo sapiens, UniProt Q01959)
Sequence (Q01959 whole entry): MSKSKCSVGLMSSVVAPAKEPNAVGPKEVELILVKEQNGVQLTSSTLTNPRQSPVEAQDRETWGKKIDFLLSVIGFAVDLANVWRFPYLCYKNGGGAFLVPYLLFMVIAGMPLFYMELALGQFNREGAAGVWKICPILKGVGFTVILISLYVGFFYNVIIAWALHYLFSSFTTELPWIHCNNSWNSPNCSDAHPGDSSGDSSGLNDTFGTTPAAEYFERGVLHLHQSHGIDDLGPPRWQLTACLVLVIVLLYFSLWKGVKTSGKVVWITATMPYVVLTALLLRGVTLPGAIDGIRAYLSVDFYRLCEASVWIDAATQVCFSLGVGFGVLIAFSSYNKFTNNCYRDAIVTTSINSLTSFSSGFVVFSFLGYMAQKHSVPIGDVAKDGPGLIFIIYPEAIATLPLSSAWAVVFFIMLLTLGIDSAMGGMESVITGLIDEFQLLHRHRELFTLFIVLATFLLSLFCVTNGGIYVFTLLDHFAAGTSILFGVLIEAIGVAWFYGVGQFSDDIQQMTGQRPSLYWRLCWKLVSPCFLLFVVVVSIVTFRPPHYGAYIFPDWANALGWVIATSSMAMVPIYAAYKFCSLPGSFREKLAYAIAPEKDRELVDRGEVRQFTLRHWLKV
Here the recorded pIC50 is given for each entry.
pIC50 here is simply -log10 of the concentration when that concentration is written in mol/L.

Item: Cc1ccc([C@H]2CC3CCC([C@H]2c2onc(C)c2-c2ccc(Cl)cc2)N3C)cc1 (some centres undefined) | System: Sodium-dependent dopamine transporter (Homo sapiens, UniProt Q01959) | pIC50: 7.18

Item: COc1ccc(-c2cc([C@@H]3C4CCC(C[C@@H]3c3ccc(C)cc3)N4C)on2)cc1 (some centres undefined) | System: Sodium-dependent dopamine transporter (Homo sapiens, UniProt Q01959) | pIC50: 8.41

API: the following record is the query input.
Value sought: pIC50, system Sodium-dependent dopamine transporter (Homo sapiens, UniProt Q01959), item Cc1ccc(Cc2cc([C@@H]3C4CCC(C[C@@H]3c3ccc(Cl)cc3)N4C)on2)cc1 (some centres undefined) . Result: 7.66

---

Parameter 'readout' = pKi; parameter 'system' = Sodium-dependent serotonin transporter (Homo sapiens, UniProt P31645).
Sequence (P31645 whole entry): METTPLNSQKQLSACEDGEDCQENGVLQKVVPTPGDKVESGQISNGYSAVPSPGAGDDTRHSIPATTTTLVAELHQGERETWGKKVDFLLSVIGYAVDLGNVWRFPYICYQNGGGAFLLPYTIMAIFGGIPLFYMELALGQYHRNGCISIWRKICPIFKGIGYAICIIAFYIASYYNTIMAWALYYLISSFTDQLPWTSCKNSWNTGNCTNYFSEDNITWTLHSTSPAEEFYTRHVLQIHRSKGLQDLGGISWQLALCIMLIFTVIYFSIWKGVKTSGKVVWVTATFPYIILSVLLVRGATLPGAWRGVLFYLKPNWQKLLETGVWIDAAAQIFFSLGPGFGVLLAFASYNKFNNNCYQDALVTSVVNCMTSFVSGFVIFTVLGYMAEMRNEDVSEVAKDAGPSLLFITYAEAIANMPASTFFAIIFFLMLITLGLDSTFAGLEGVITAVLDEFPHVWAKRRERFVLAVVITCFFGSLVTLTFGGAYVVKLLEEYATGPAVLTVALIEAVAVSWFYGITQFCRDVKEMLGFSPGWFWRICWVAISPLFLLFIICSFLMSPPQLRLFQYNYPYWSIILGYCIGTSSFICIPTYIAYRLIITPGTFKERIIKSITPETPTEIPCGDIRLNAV
Lab note — pKi values are minus log10 of concentrations in M.

Below are worked cases with known answers.
// recorded pKi for CN1C2CCC1[C@@H](c1cc(Cc3ccc(F)cc3)no1)[C@@H](c1ccc(Cl)cc1)C2 (stereo not given in full) : 7.14

For this compound ( Cc1ccc([C@H]2CC3CCC([C@H]2c2onc(C)c2-c2ccc(Cl)cc2)N3C)cc1 (stereo not given in full) ), measured pKi is 6.06

The recorded pKi for Cc1ccc(Cc2cc([C@@H]3C4CCC(C[C@@H]3c3ccc(Cl)cc3)N4C)on2)cc1 (stereo not given in full) is 7.37

Reported pKi for Cc1ccc(Cc2cc([C@@H]3C4CCC(C[C@@H]3c3ccc(C)cc3)N4C)on2)cc1 (stereo not given in full) was 7.05

So for Cc1ccc(-c2cc([C@@H]3C4CCC(C[C@@H]3c3ccc(Cl)cc3)N4C)on2)cc1 (stereo not given in full) , the logged pKi turned out to be 6.28

Next:
Item: Cc1noc([C@@H]2C3CCC(C[C@@H]2c2ccc(Cl)cc2)N3C)c1-c1ccc(F)cc1 (stereo not given in full) | pKi: 6.04

Data point: Cc1noc([C@@H]2C3CCC(C[C@@H]2c2ccc(Cl)cc2)N3C)c1-c1ccc(Cl)cc1 (stereo not given in full) ; pKi = 6.41

GET /value?item= Cc1ccc(-c2c(C)noc2[C@@H]2C3CCC(C[C@@H]2c2ccc(Cl)cc2)N3C)cc1 (stereo not given in full) &field=pKi returns 6.53

---

The listing below reports pKi for compounds tested on Sodium-dependent serotonin transporter (Homo sapiens, UniProt P31645).
pKi: −log10 of the molar value.

Here's what some known entries look like.
// pKi (Sodium-dependent serotonin transporter (Homo sapiens, UniProt P31645)) for Cc1ccc([C@H]2CC3CCC([C@H]2c2cc(-c4ccc(Cl)cc4)no2)N3C)cc1 (stereo partly drawn) = < 5.70

Observed pKi on Sodium-dependent serotonin transporter (Homo sapiens, UniProt P31645), entry CN1C2CCC1[C@@H](c1cc(-c3ccc(Cl)cc3)no1)[C@@H](c1ccc(Cl)cc1)C2 (stereo partly drawn) , equals < 5.70

We now examine a further compound.
For COc1ccc(-c2c(C)noc2[C@@H]2C3CCC(C[C@@H]2c2ccc(C)cc2)N3C)cc1 (stereo partly drawn) on Sodium-dependent serotonin transporter (Homo sapiens, UniProt P31645), measured pKi was < 5.70

---

Let's go through some recorded pIC50 values for Sodium-dependent dopamine transporter (Homo sapiens) together.
# log scale: pIC50 equals minus log10 of the concentration in mol/L

Reference set, count: 5
Lab note: CN1C2CCC1[C@@H](c1cc(Cc3ccc(Cl)cc3)no1)[C@@H](c1ccc(Cl)cc1)C2 (stereo partly specified) gave pIC50 of 7.76

Quick note, pIC50 for COc1ccc(-c2c(C)noc2[C@@H]2C3CCC(C[C@@H]2c2ccc(C)cc2)N3C)cc1 (stereo partly specified) landed at 6.92

The compound listed as Cc1ccc(-c2cc([C@@H]3C4CCC(C[C@@H]3c3ccc(C)cc3)N4C)on2)cc1 (stereo partly specified) shows pIC50 equal to 7.89

In plain terms, COc1ccc(-c2cc([C@@H]3C4CCC(C[C@@H]3c3ccc(Cl)cc3)N4C)on2)cc1 (stereo partly specified) has a documented pIC50 of 8.80

// recorded pIC50 for Cc1ccc([C@H]2CC3CCC([C@H]2c2cc(-c4ccc(Cl)cc4)no2)N3C)cc1 (stereo partly specified) : 8.06

Below: the item to evaluate.
Lab book: pIC50 of Cc1noc([C@@H]2C3CCC(C[C@@H]2c2ccc(Cl)cc2)N3C)c1-c1ccc(Cl)cc1 (stereo partly specified) noted as 7.16

Just for reference, ChEMBL document CHEMBL1155007 is where these values come from.
